Source listed as patent US20220289794A1.

# System: Escherichia coli (E. Coli, ATCC 25922)
# run_conditions: ATCC 25922
Non-standard residues stand in square brackets, D forms with d. Residues, ends and D or L forms follow the SMILES beside them. 2Nal = N[C@@H](Cc1ccc2ccccc2c1)C(=O)O
Recorded Escherichia coli (ATCC 25922) MIC values for a group of compounds are listed next.

compound: N=C(N)NCCC[C@@H]1NC(=O)[C@H](CCCNC(=N)N)NC(=O)[C@H](CCCNC(=N)N)NC(=O)[C@H](CCCCN)NC(=O)[C@H](Cc2c[nH]c3ccccc23)NC(=O)[C@H](Cc2c[nH]c3ccccc23)NC(=O)[C@H](Cc2c[nH]c3ccccc23)NC(=O)[C@H](Cc2c[nH]c3ccccc23)NC(=O)[C@H](CCCNC(=N)N)NC(=O)[C@H](CCCNC(=N)N)NC1=O [[R4W5K] (IFX-315)] (cyclo(RRRRRWWWWK))
Escherichia coli (ATCC 25922) MIC: 16 µg/mL

Q. Suppose we examine the compound N=C(N)NCCC[C@@H]1NC(=O)[C@H](CCCNC(=N)N)NC(=O)[C@H](CCCNC(=N)N)NC(=O)[C@H](Cc2c[nH]c3ccccc23)NC(=O)[C@H](Cc2ccc3ccccc3c2)NC(=O)[C@H](Cc2ccc3ccccc3c2)NC(=O)[C@H](CCCNC(=N)N)NC1=O [IFX-031, c[Arg-Arg-Arg-Arg-NaI-NaI-Trp]] (cyclo(RRRR[2Nal][2Nal]W)) ; what Escherichia coli (ATCC 25922) MIC value has been reported?
A. 16 µg/mL

Q. Query: Escherichia coli (ATCC 25922) MIC; subject: N=C(N)NCCC[C@@H]1NC(=O)[C@H](CCCNC(=N)N)NC(=O)[C@H](CCCNC(=N)N)NC(=O)[C@H](CCCCN)NC(=O)[C@H](Cc2c[nH]c3ccccc23)NC(=O)[C@H](Cc2c[nH]c3ccccc23)NC(=O)[C@H](Cc2c[nH]c3ccccc23)NC(=O)[C@H](Cc2c[nH]c3ccccc23)NC(=O)[C@H](CCCNC(=N)N)NC(=O)[C@H](CCCNC(=N)N)NC1=O [IFX-315, [R5W4K]] (cyclo(RRRRRWWWWK))
A. 16 µg/mL

Q. Fill in: Escherichia coli (ATCC 25922) MIC of N=C(N)NCCC[C@@H]1NC(=O)[C@H](CCCNC(=N)N)NC(=O)[C@H](CCCNC(=N)N)NC(=O)[C@H](CCCNC(=N)N)NC(=O)[C@H](Cc2c[nH]c3ccccc23)NC(=O)[C@H](Cc2c[nH]c3ccccc23)NC(=O)[C@H](Cc2c[nH]c3ccccc23)NC(=O)[C@H](Cc2c[nH]c3ccccc23)NC(=O)[C@H](CCCNC(=N)N)NC(=O)[C@H](CCCNC(=N)N)NC1=O [IFX-318, [R6W4]] (cyclo(RRRRRRWWWW)) is ___
A. 32 µg/mL
